Data origin: patent US20110173718A1

# Tested on: weeds
# Measurement notes: Glasshouse weed control, HST inhibitors alone and with A22, post-emergence
# Assay type: in vivo
# Stated conditions: PANMI, 14 DAT, 250 g/ha alone, single replicate
Readout kind: % control score, Obs (%)
Give a bare numeral; the unit % is implied.

Recorded % control score, Obs, per entry:
>>> print(df.to_string())
                         chemical_structure  assay_system          readout_kind  unit_abbreviation  test_value
0  C#Cn1c(=O)c(-c2c(F)ccc(F)c2Cl)c(O)c2nccnc21         weeds  % control score, Obs                  %          70
1  O=c1c(-c2c(F)ccc(F)c2Cl)c(O)c2nccnc2n1CC(F)F         weeds  % control score, Obs                  %          65
2  CC(C)C(=O)Oc1c(-c2c(Cl)cccc2C(F)(F)F)c(=O)n(CC(F)F)c2nccnc12         weeds  % control score, Obs                  %          70

We now examine a further compound.
Prompt: Observed % control score, Obs on weeds for "CC(C)(C)C(=O)Oc1c(-c2c(F)ccc(Cl)c2Cl)c(=O)n(CC(F)F)c2nccnc12" , please.
Response: 55
